Tested on: CipR MRSA OC5273
ASSAY OVERVIEW: Resistant strains assay (broth microdilution MIC)
Type: cell-based
EXPERIMENTAL PARAMETERS: Staphylococcus aureus, read-out: MIC, Column H
The reader will find reported MIC values listed item by item below.

{"columns": ["COMPOUND", "VALUE MODIFIER", "MIC (µg/mL)"],
 "data": [
  ["COc1ccc2nccc(-n3cc4c(n3)CCC(NCc3ccc5c(c3)OCCO5)C4)c2c1 (centres unmarked) [Example 50]", "=", 1],
  ["COc1ccc2nccc(-n3cc4c(n3)CCC(NC(=O)c3cc5c(cc3F)SCC(=O)N5)C4)c2n1 (centres unmarked) [Example 5]", "=", 0.031],
  ["C[C@@H]1CN(c2c(F)c(N)c3c(=O)c(C(=O)O)cn(C4CC4)c3c2F)C[C@H](C)N1 [Sparfloxacin, reference compound]", "=", 16],
  ["O=C1CSc2ccc(C(=O)NC3CCc4nn(-c5cccc6cccnc56)cc4C3)cc2N1 (centres unmarked) [Example 31]", "=", 0.5],
  ["COc1ccc2nccc(-n3cc4c(n3)CCC(NC(=O)c3ccc5c(c3)NC(=O)CS5)C4)c2c1 (centres unmarked) [Example 17]", "=", 0.25],
  ["CCn1cc(C(=O)O)c(=O)c2cc(F)c(N3CCNCC3)cc21 [Norfloxacin, reference compound]", ">", 128],
  ["COc1ccc2nccc(-n3cc4c(n3)CCC(NC/C=C/c3ccccc3)C4)c2n1 (centres unmarked) [Example 46]", "=", 0.125],
  ["COc1ccc2nccc(-n3cc4c(n3)CCC(NC/C=C/c3ccccc3)C4)c2c1 (centres unmarked) [Example 55]", "=", 1]
]}
